Listed next: entries and their corresponding Max. Disp. %, 3H-CP55940.
measured on: human CB1 receptor (Homo sapiens)
Construct: expressed in transfected cells; host or cells: HEK-293
experimental details: Radioligand displacement in human CB1 receptor-transfected cells (HEK-293)
Assay type: binding
conditions: human CB1 transfected cells; 3H-CP55940; Table 5, parallel synthesis analogs
reported metric: Max. Disp. %, 3H-CP55940

| compound | reported metric | reported value |
| --- | --- | --- |
| CCCCCCCCCC(C)NC(=O)c1nn(-c2ccc(Cl)cc2Cl)c(-c2ccc(Cl)cc2)c1C (stereo not drawn) [AKS-10262-3] | Max. Disp. %, 3H-CP55940 | 77.7% |
| COc1ccc(CCNC(=O)c2nn(-c3ccc(Cl)cc3Cl)c(-c3ccc(Cl)cc3)c2C)cc1 [AM-29] | Max. Disp. %, 3H-CP55940 | 80.3% |
| CC(C)=CCC/C(C)=C/CNC(=O)c1nn(-c2ccc(Cl)cc2Cl)c(-c2ccc(Cl)cc2)c1C [AKS-10262-2] | Max. Disp. %, 3H-CP55940 | 84.2% |
| CCC(C)CC(C)NC(=O)c1nn(-c2ccc(Cl)cc2Cl)c(-c2ccc(Cl)cc2)c1C (stereo not drawn) [AKS-10262-6] | Max. Disp. %, 3H-CP55940 | 86.5% |
| CCCCCC(CC)NC(=O)c1nn(-c2ccc(Cl)cc2Cl)c(-c2ccc(Cl)cc2)c1C (stereo not drawn) [AKS-10262-5] | Max. Disp. %, 3H-CP55940 | 91.4% |
| Cc1c(C(=O)NC(C)CCC(C)C)nn(-c2ccc(Cl)cc2Cl)c1-c1ccc(Cl)cc1 (stereo not drawn) [AKS-10262-8] | Max. Disp. %, 3H-CP55940 | 76.8% |
| CCCCCCCCCCCNC(=O)c1nn(-c2ccc(Cl)cc2Cl)c(-c2ccc(Cl)cc2)c1C [BT-7] | Max. Disp. %, 3H-CP55940 | 82.4% |
| COCC(C)NC(=O)c1nn(-c2ccc(Cl)cc2Cl)c(-c2ccc(Cl)cc2)c1C (stereo not drawn) [AM-17] | Max. Disp. %, 3H-CP55940 | 86.3% |
| Cc1c(C(=O)NCCC(c2ccccc2)c2ccccc2)nn(-c2ccc(Cl)cc2Cl)c1-c1ccc(Cl)cc1 [AKS-10262-9] | Max. Disp. %, 3H-CP55940 | 88.1% |

====

Listed next: entries and their corresponding Max. Disp. %, 3H-SR141716A.
measured on: human CB1 receptor (Homo sapiens, UniProt P21554)
Construct: expressed in transfected cells; host or cells: HEK-293
Sequence (P21554 whole entry): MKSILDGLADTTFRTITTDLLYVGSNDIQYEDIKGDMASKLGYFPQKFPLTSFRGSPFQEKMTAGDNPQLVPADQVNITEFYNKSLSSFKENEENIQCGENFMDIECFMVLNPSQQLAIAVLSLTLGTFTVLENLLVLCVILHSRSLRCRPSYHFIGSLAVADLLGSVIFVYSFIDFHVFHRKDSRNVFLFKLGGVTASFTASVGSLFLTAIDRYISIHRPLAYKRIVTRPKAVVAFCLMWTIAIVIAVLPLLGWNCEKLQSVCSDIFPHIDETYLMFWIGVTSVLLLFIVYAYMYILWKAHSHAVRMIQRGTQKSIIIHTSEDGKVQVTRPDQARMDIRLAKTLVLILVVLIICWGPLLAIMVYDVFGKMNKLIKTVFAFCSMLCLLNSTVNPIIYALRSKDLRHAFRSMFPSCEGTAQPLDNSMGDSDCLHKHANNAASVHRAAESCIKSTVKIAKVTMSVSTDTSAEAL
experimental details: Radioligand displacement in human CB1 receptor-transfected cells (HEK-293)
Type: binding

| compound | measured on | Max. Disp. %, 3H-SR141716A (%) |
| --- | --- | --- |
| Cc1c(C(=O)NC(C)CCCC(C)C)nn(-c2ccc(Cl)cc2Cl)c1-c1ccc(Cl)cc1 (stereo not shown) [AKS-10262-7] | human CB1 receptor (Homo sapiens, UniProt P21554) | 93.7 |
| CCCCCCCCCCNC(=O)c1nn(-c2ccc(Cl)cc2Cl)c(-c2ccc(Cl)cc2)c1C [BT-1] | human CB1 receptor (Homo sapiens, UniProt P21554) | 95.4 |
| CCCCCCC(C)NC(=O)c1nn(-c2ccc(Cl)cc2Cl)c(-c2ccc(Cl)cc2)c1C (stereo not shown) [AKS-10262-4] | human CB1 receptor (Homo sapiens, UniProt P21554) | 91.5 |
| CCCCCCCNC(=O)c1nn(-c2ccc(Cl)cc2Cl)c(-c2ccc(Cl)cc2)c1C [MF9725-133-25] | human CB1 receptor (Homo sapiens, UniProt P21554) | 67.9 |

====

measured on: human CB1 receptor (Homo sapiens, UniProt P21554)
Construct: expressed in transfected cells; host or cells: HEK-293
experimental details: Radioligand displacement in human CB1 receptor-transfected cells (HEK-293)
Format: binding
Listed next: entries and their corresponding Max. Disp. %, 3H-CP55940.
reported metric: Max. Disp. %, 3H-CP55940 (%)

| compound | reported value |
| --- | --- |
| CCCCCCCCCCNC(=O)c1nn(-c2ccc(Cl)cc2Cl)c(-c2ccc(Cl)cc2)c1C [BT-1] | 94.5 |
| CCCCCCCNC(=O)c1nn(-c2ccc(Cl)cc2Cl)c(-c2ccc(Cl)cc2)c1C [MF9725-133-25] | 85.3 |
| CCCCCNC(=O)c1nn(-c2ccc(Cl)cc2Cl)c(-c2ccc(Cl)cc2)c1C [MF9725-67-17] | 87.1 |

====

measured on: CB1 receptor (Rattus norvegicus)
Construct: Whole rat brains or dissected regions from live CD rats; tissue Charles River or Pel-Freez Biologicals; host or cells: whole rat brain (CD rats), P2 membrane
Sequence (P20272 whole entry): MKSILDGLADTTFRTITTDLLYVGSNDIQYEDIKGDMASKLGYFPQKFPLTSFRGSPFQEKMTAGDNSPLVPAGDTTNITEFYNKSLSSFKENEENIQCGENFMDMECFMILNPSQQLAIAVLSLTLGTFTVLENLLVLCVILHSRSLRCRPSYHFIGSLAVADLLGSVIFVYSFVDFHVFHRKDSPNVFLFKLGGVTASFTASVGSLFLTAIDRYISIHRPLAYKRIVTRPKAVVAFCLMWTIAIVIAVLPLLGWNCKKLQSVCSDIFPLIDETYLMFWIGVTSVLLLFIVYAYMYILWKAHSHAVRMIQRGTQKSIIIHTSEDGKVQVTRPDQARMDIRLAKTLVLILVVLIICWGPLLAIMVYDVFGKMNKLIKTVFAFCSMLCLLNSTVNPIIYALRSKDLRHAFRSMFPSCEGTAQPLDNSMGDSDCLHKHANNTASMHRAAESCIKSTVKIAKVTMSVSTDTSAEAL
experimental details: Radioligand displacement in whole rat brain (CB1) membrane preparations
Type: binding
conditions: Ki, displacement of 3H-CP55940, whole rat brain; 3H-CP55940; Table 4, parallel synthesis analogs, n = 1, concentration assumes 100% yield
pKi: −log10 of the molar value.
Listed next: entries and their corresponding pKi.
reported metric: pKi

| compound | measured on | reported metric | reported value |
| --- | --- | --- | --- |
| Cc1c(C(=O)NCCC(c2ccccc2)c2ccccc2)nn(-c2ccc(Cl)cc2Cl)c1-c1ccc(Cl)cc1 | CB1 receptor (Rattus norvegicus) | pKi | 7.70 |
| CCCCCC(C)NC(=O)c1nn(-c2ccc(Cl)cc2Cl)c(-c2ccc(Cl)cc2)c1C (stereo not drawn) | CB1 receptor (Rattus norvegicus) | pKi | 7.97 |
| CCCCCCCCCC(C)NC(=O)c1nn(-c2ccc(Cl)cc2Cl)c(-c2ccc(Cl)cc2)c1C (stereo not drawn) | CB1 receptor (Rattus norvegicus) | pKi | 7.57 |

====

measured on: human CB1 receptor (Homo sapiens, UniProt P21554)
Construct: expressed in transfected cells; host or cells: HEK-293
experimental details: Radioligand displacement in human CB1 receptor-transfected cells (HEK-293)
Type: binding
conditions: human CB1 transfected cells; radioligand 3H-WIN55212-2; Table 3
Listed next: entries and their corresponding Max. Disp. %, 3H-WIN55212-2.

| molecule | Max. Disp. %, 3H-WIN55212-2 (%) |
| --- | --- |
| CCNC(=O)c1nn(-c2ccc(Cl)cc2Cl)c(-c2ccc(Cl)cc2)c1C [MF9725-54C] | 78.8 |
| Cc1c(C(=O)NC(C)C)nn(-c2ccc(Cl)cc2Cl)c1-c1ccc(Cl)cc1 | 93.6 |
| Cc1c(C(=O)NCC(C)C)nn(-c2ccc(Cl)cc2Cl)c1-c1ccc(Cl)cc1 | 100 |

====

measured on: human CB2 receptor (Homo sapiens, UniProt P34972)
Construct: expressed in transfected cells; host or cells: CHO-K1
Sequence (P34972 whole entry): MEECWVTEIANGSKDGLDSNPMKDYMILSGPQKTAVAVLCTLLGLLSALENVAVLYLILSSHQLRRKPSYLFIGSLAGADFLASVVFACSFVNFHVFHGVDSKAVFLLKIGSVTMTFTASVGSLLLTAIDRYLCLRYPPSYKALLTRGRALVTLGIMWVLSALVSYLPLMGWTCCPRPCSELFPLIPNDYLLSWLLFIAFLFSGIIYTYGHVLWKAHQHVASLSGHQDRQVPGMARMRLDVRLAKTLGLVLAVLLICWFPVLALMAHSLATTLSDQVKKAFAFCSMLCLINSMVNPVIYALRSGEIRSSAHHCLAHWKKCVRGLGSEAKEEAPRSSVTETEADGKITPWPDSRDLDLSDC
experimental details: Displacement of 3H-CP55,940 in human CB2 receptor-transfected cells (CHO-K1)
Format: binding
conditions: human CB2 transfected cells; radioligand 3H-CP55940; Tables 6 and 7
Experimental: Human CB2 receptor affinity. The relative selectivity of the analogs for CB1 versus CB2 receptors varied modestly regardless of the structural modifications examined to date. Methods—binding assay in transfected cell lines. The methods used for performing binding assays in transfected cells expressing human CB1 or CB2 receptors are those used above. […] Data analysis. Saturation and displacement data were analyzed by unweighted nonlinear regression of receptor binding data. […]
Listed next: entries and their corresponding Max. Disp. %, 3H-CP55940.
reported metric: Max. Disp. %, 3H-CP55940 (%)

| compound | reported metric | reported value |
| --- | --- | --- |
| CCOC(=O)c1nn(-c2ccc(Cl)cc2Cl)c(-c2ccc(Cl)cc2)c1C | Max. Disp. %, 3H-CP55940 | 51.4 |
| CCCCCNC(=O)c1nn(-c2ccc(Cl)cc2Cl)c(-c2ccc(Cl)cc2)c1C | Max. Disp. %, 3H-CP55940 | 75.9 |
| Cc1c(C(=O)NC(C)CO)nn(-c2ccc(Cl)cc2Cl)c1-c1ccc(Cl)cc1 (single isomer, unassigned) [MF9725-105-38] | Max. Disp. %, 3H-CP55940 | 47.5 |
| CCCNC(=O)c1nn(-c2ccc(Cl)cc2Cl)c(-c2ccc(Cl)cc2)c1C [MF9725-55C] | Max. Disp. %, 3H-CP55940 | 68.3 |
| Cc1c(C(=O)NCCO)nn(-c2ccc(Cl)cc2Cl)c1-c1ccc(Cl)cc1 | Max. Disp. %, 3H-CP55940 | 33.3 |
| Cc1c(C(=O)NN)nn(-c2ccc(Cl)cc2Cl)c1-c1ccc(Cl)cc1 | Max. Disp. %, 3H-CP55940 | 80.8 |
| CCCCCCCCCNC(=O)c1nn(-c2ccc(Cl)cc2Cl)c(-c2ccc(Cl)cc2)c1C | Max. Disp. %, 3H-CP55940 | 53.8 |
